Tested on: Toxoplasma gondii
Experiment: Antiparasitic activity against Toxoplasma gondii assessed as growth inhibition
Format: functional, organism-based
assay endpoint: pIC50
// pIC50 here means minus log10 of the molar concentration (mol/L)

Prompt line: Reported pIC50 for CCCCCCNCC(P(=O)(O)O)P(=O)(O)O : what is it?
Response line: 5.03

====

// Farnesyl diphosphate synthase (Trypanosoma cruzi) pIC50 records
// pIC50 here means minus log10 of the molar concentration (mol/L)

CCCCCCCCCCCCNCC(P(=O)(O)O)P(=O)(O)O; 6.09
CCCCCCCCCCCNCC(P(=O)(O)O)P(=O)(O)O; 6.07

Okay, next one:
Prompt line: Query pIC50 on Farnesyl diphosphate synthase (Trypanosoma cruzi) for CCCCCCCCCNCC(P(=O)(O)O)P(=O)(O)O
Response line: 6.37

====

Each item that follows carries a reported IC50.
Molecular target: Farnesyl diphosphate synthase (Toxoplasma gondii, UniProt Q197X6)
Sequence (Q197X6 whole entry): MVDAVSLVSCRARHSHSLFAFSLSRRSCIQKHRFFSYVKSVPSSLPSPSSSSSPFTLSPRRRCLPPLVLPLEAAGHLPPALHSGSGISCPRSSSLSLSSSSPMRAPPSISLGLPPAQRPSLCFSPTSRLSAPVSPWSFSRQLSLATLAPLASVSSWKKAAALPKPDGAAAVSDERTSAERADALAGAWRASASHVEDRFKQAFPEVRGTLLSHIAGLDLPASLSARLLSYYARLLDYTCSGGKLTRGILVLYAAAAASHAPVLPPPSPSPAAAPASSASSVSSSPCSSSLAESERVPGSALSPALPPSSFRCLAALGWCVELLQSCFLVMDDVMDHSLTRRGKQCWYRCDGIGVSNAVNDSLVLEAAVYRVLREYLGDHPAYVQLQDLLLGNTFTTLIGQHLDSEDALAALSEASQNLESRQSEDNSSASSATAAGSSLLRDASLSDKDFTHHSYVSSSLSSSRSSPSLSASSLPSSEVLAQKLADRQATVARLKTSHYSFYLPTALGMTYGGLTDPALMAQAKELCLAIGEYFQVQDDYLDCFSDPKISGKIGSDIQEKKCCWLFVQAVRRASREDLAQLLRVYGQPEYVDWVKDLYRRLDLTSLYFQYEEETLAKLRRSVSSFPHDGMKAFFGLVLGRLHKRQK
Experiment: Inhibition of Toxoplasma gondii FPPS after 30 mins using [14C]IPP by scintillation counting
Unit nM implied. Number only.

The cases that follow already have their IC50 on record.
CCCCCCCCCNCC(P(=O)(O)O)P(=O)(O)O; 440
CCCCCCCCCCCNCC(P(=O)(O)O)P(=O)(O)O; 868
CCCCCCCCCCNCC(P(=O)(O)O)P(=O)(O)O; 68
CCCCCCCCCCCCCCNCC(P(=O)(O)O)P(=O)(O)O; 292

Okay, next one:
Prompt line: Query IC50 on Farnesyl diphosphate synthase (Toxoplasma gondii, UniProt Q197X6) for CCCCCCCCCCCCNCC(P(=O)(O)O)P(=O)(O)O
Response line: 93

====

Each item that follows carries a reported pIC50.
Target: Farnesyl diphosphate synthase (Trypanosoma cruzi, UniProt Q8WS26)
Sequence (Q8WS26 whole entry): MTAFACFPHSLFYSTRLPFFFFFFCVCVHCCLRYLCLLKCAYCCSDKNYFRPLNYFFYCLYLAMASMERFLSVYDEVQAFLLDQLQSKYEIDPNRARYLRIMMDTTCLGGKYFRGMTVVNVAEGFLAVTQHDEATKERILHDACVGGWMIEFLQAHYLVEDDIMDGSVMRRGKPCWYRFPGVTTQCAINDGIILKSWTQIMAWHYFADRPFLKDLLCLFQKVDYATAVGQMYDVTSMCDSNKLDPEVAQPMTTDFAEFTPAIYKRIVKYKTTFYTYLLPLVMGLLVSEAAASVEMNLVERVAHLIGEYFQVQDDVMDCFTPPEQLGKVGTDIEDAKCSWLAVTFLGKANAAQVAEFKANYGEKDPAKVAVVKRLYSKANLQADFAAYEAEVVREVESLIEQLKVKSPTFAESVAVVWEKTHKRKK
pIC50: −log10 of the molar value.

The cases that follow already have their pIC50 on record.
CCCCCCCCCCNCC(P(=O)(O)O)P(=O)(O)O; < 6.00
O=P(O)(O)C(CNCc1ccccc1)P(=O)(O)O; < 6.00

Okay, next one:
Prompt line: Reported pIC50 for CCCCCCCCCCCCCCNCC(P(=O)(O)O)P(=O)(O)O : what is it?
Response line: < 6.00
